Provide the recorded normalized SmoIP GFP fluorescence for the entries that follow.
test system: Drosophila S2 cl14 SmoIP sensor cells; assay: normalized SmoIP GFP fluorescence (untreated unstimulated = 0%, untreated Hh-stimulated = 100%); higher = more Smo activation sensor fluorescence; conditions: stimulation: mock conditioned medium (-Hh); compound concentration: 2 uM; 24 h
Where a name gives a salt, the structure may show the parent alone.
Respond with the bare value in %.

[Q] Fill blank: measured normalized SmoIP GFP fluorescence of the molecule `CCCCCCCCc1ccc(CCC(N)(CO)CO)cc1` is ____.
[A] -0.0369

[Q] Would you mind telling me what normalized SmoIP GFP fluorescence value was observed for CC(C)n1c(/C=C/[C@@H](O)C[C@@H](O)CC(=O)O)c(-c2ccc(F)cc2)c2ccccc21 [Fluvastatin-Sodium(Lescol] ?
[A] -7.6

[Q] If you can, please state the reported normalized SmoIP GFP fluorescence value of c1ccc2c(c1)CCCC2C1=NCCN1 (configuration not stated) [tetrahydrozoline-hcl] .
[A] -0.491

[Q] Fill blank: measured normalized SmoIP GFP fluorescence of the molecule CN1CCC[C@@H]1CCO[C@](C)(c1ccccc1)c1ccc(Cl)cc1 [Clemastine-Fumarate] is ____.
[A] 10.7

[Q] Which normalized SmoIP GFP fluorescence reading was recorded for the molecule `CC(C)(C)c1cc(C(C)(C)C)c(NC(=O)c2c[nH]c3ccccc3c2=O)cc1O` ?
[A] 7.39

[Q] May I ask what normalized SmoIP GFP fluorescence has been recorded for `CCOc1nc2cccc(C(=O)O)c2n1Cc1ccc(-c2ccccc2-c2noc(=O)[nH]2)cc1` ?
[A] -4.7

[Q] Suppose we examine the molecule `COc1ccc(C2=N[C@@H](c3ccc(Cl)cc3)[C@@H](c3ccc(Cl)cc3)N2C(=O)N2CCNC(=O)C2)c(OC(C)C)c1` ; what normalized SmoIP GFP fluorescence value has been reported?
[A] 2.11

[Q] Please report the recorded normalized SmoIP GFP fluorescence for O=C1NC(=O)C(=Cc2ccc(-c3ccc(F)cc3)o2)S1 (stereo in doubt) .
[A] -2.48

[Q] What value of measured normalized SmoIP GFP fluorescence is listed for `NCC(=O)Nc1ccc(-n2nc(C(F)(F)F)cc2-c2ccc3c(ccc4ccccc43)c2)cc1` ?
[A] 0.812

[Q] Recorded normalized SmoIP GFP fluorescence of `Cc1ccc(C(=O)Cn2c3c(sc2=N)CCCC3)cc1` , please.
[A] -1

[Q] So what's the measured normalized SmoIP GFP fluorescence for this one? `COc1cc(N2CCC(N3CCN(C)CC3)CC2)ccc1Nc1ncc(Cl)c(Nc2ccccc2S(=O)(=O)C(C)C)n1`
[A] 10.2

[Q] State the recorded normalized SmoIP GFP fluorescence for this entry: `CC(C)C[C@H](NC(=O)[C@H]1O[C@@H]1C(=O)O)C(=O)NCCCCN=C(N)N`
[A] -3.72

* * *

system: Drosophila S2 cl14 SmoIP sensor cells; assay: normalized SmoIP GFP fluorescence (untreated unstimulated = 0%, untreated Hh-stimulated = 100%); higher = more Smo activation sensor fluorescence; settings: stimulation: mock conditioned medium (-Hh); compound concentration: 2 uM; 24 h;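 also: flow cytometry read-out as median GFP intensity of gated cells, compounds added 30 min before Hh-conditioned or mock medium, mock-treated cells serving as unstimulated baseline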
Where a name gives a salt, the structure may show the parent alone.
Hi there, I'd appreciate the recorded normalized SmoIP GFP fluorescence for every entry that follows.
Could you give me the number in %? Just the number is fine.

[Q] Data request, read-out normalized SmoIP GFP fluorescence, for `CO[C@H]1C[C@@H]2CC[C@@H](C)[C@@](O)(O2)C(=O)C(=O)N2CCCC[C@H]2C(=O)O[C@H]([C@H](C)C[C@@H]2CC[C@@H](O)[C@H](OC)C2)CC(=O)[C@H](C)/C=C(\C)[C@@H](O)[C@@H](OC)C(=O)[C@H](C)C[C@H](C)/C=C/C=C/C=C/1C`
[A] 19.1

[Q] Which value of normalized SmoIP GFP fluorescence has been reported for `COc1ccnc2[nH]cc(C(=O)C(=O)N3CCN(C(=O)c4ccccc4)C[C@H]3C)c12` in the records?
[A] 15.4

[Q] Record request: normalized SmoIP GFP fluorescence value, item `Cc1c(NC(=O)OC[C@@H]2COCCN2)cn2ncnc(Nc3ccc4c(cnn4Cc4cccc(F)c4)c3)c12`
[A] 16.5

[Q] I have this compound here, `COc1ccc(CCc2nc3cc(-c4c(C)noc4C)ccc3n2C[C@H](C)N2CCOCC2)cc1Cl` , and I need its recorded normalized SmoIP GFP fluorescence.
[A] 2.75

[Q] Recorded normalized SmoIP GFP fluorescence for CCOC(=O)[C@H](CCc1ccccc1)N[C@H]1CS[C@H](c2cccs2)CN(CC(=O)O)C1=O [temocapril-hcl] , please?
[A] 0.785

[Q] What value of measured normalized SmoIP GFP fluorescence is listed for CN(C)CCC[C@@]1(c2ccc(F)cc2)OCc2cc(C#N)ccc21 [escitalopram-oxalate] ?
[A] -1.12

[Q] Any idea what normalized SmoIP GFP fluorescence was measured for `CCN(CC)CCCCNc1ncc2cc(-c3cc(OC)cc(OC)c3)c(NC(=O)NC(C)(C)C)nc2n1` ?
[A] 8.79

[Q] Please give the measured normalized SmoIP GFP fluorescence for this compound: `COc1cc2/c(=N/c3ccc(Br)cc3F)nc[nH]c2cc1OCC1CCN(C)CC1`
[A] 60.9

[Q] Give its normalized SmoIP GFP fluorescence value. Item: `Oc1ccc(/C=C/c2cc(O)cc(O)c2)cc1`
[A] -4.25

[Q] Form field: reported normalized SmoIP GFP fluorescence of `CS(=O)(=O)c1ccc(-c2cnc(N)c(C(=O)Nc3ccccc3)n2)cc1`
[A] 74.4

[Q] Consider the compound `CC(=O)[C@H]1CC[C@H]2[C@@H]3CC=C4C[C@@H](O)CC[C@]4(C)[C@H]3CC[C@]12C` and give its measured normalized SmoIP GFP fluorescence.
[A] 8.09

[Q] Field request: normalized SmoIP GFP fluorescence | item: Nc1nc(N)nc(-c2cc(Cl)ccc2Cl)n1 [Irsogladine-maleate]
[A] -3.9
